Literature survey of IC50 (system: MALT1 (Homo sapiens, UniProt Q9UDY8)).
Sequence (Q9UDY8 whole entry): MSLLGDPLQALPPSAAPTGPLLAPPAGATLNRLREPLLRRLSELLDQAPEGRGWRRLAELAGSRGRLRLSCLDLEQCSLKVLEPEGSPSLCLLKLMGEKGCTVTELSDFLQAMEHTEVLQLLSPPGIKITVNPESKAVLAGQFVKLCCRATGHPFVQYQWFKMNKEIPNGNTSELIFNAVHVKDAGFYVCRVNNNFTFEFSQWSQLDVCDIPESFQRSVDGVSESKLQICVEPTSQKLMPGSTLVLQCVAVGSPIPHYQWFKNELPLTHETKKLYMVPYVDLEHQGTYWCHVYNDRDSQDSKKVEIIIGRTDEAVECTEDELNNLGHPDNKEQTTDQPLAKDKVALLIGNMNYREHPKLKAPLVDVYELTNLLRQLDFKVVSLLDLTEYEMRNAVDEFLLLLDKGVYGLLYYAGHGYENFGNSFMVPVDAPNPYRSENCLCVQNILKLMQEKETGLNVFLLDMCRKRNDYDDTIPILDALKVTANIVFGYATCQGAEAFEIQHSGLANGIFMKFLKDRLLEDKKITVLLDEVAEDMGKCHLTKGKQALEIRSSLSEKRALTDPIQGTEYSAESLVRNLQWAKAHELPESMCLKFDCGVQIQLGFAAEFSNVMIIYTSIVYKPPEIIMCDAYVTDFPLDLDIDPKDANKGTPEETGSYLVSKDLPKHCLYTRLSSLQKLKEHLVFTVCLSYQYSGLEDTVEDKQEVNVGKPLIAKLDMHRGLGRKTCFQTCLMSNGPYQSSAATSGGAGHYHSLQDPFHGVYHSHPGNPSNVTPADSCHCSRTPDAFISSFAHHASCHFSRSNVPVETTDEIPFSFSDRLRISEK
ASSAY_READOUT: IC50

{"COMPOUND": "Cn1nc(-c2ccnc3ccsc23)c(C(F)(F)F)c1C(=O)Nc1ccnc(C(F)(F)F)c1", "ASSAYED_TARGET": "MALT1 (Homo sapiens, UniProt Q9UDY8)", "VALUE_MEASURED": "500 to 2500 nM"}
{"COMPOUND": "Cc1cc(NC(=O)c2snc(-c3cccc4ncsc34)c2C2CC2)ccn1", "ASSAYED_TARGET": "MALT1 (Homo sapiens, UniProt Q9UDY8)", "VALUE_MEASURED": "≤ 400 nM"}
{"COMPOUND": "O=C(Nc1cnc([C@@H]2CCCO2)c(Cl)c1)c1cnn(-c2ccc(Cl)n3nccc23)c1C(F)(F)F (single isomer, unassigned)", "ASSAYED_TARGET": "MALT1 (Homo sapiens, UniProt Q9UDY8)", "VALUE_MEASURED": "87 nM"}
{"COMPOUND": "Cn1nc2cccc(-c3nsc(C(=O)Nc4ccnc(C(F)(F)F)c4)c3C3CC3)c2n1", "ASSAYED_TARGET": "MALT1 (Homo sapiens, UniProt Q9UDY8)", "VALUE_MEASURED": "≤ 400 nM"}
{"COMPOUND": "Cn1nc(-c2ccccc2OC2COC2)c(C(F)(F)F)c1C(=O)Nc1ccnc(C(F)(F)F)c1", "ASSAYED_TARGET": "MALT1 (Homo sapiens, UniProt Q9UDY8)", "VALUE_MEASURED": "2500 to 10000 nM"}
{"COMPOUND": "COc1ccc2c(-c3nsc(C(=O)Nc4cnc(-n5nccn5)c(Cl)c4)c3C(F)(F)F)cccc2n1", "ASSAYED_TARGET": "MALT1 (Homo sapiens, UniProt Q9UDY8)", "VALUE_MEASURED": "≤ 400 nM"}
{"COMPOUND": "Cn1nc(-c2c(F)ccc3nccn23)c(C(F)(F)F)c1C(=O)Nc1ccnc(C(F)(F)F)c1", "ASSAYED_TARGET": "MALT1 (Homo sapiens, UniProt Q9UDY8)", "VALUE_MEASURED": "500 to 2500 nM"}
{"COMPOUND": "COc1ncc(NC(=O)c2c(C(F)(F)F)c(-c3cccc4ccoc34)nn2C)cc1C#N", "ASSAYED_TARGET": "MALT1 (Homo sapiens, UniProt Q9UDY8)", "VALUE_MEASURED": "< 500 nM"}
{"COMPOUND": "COCc1ncc(-n2ncc(C(=O)Nc3cnc(-n4nccn4)c(Cl)c3)c2C(F)(F)F)c2ccccc12", "ASSAYED_TARGET": "MALT1 (Homo sapiens, UniProt Q9UDY8)", "VALUE_MEASURED": "91 nM"}
{"COMPOUND": "Cn1nc(-c2cccc3nscc23)c(C(F)(F)F)c1C(=O)Nc1cnc(-n2nccn2)c(Cl)c1", "ASSAYED_TARGET": "MALT1 (Homo sapiens, UniProt Q9UDY8)", "VALUE_MEASURED": "< 500 nM"}
{"COMPOUND": "O=C(Nc1cnc(-n2nccn2)c(Cl)c1)c1cnn(-c2cccc3ncccc23)c1Br", "ASSAYED_TARGET": "MALT1 (Homo sapiens, UniProt Q9UDY8)", "VALUE_MEASURED": "115 nM"}
{"COMPOUND": "Cc1cc(NC(=O)c2snc(-c3cccc4ncoc34)c2C2CC2)cnc1-n1nccn1", "ASSAYED_TARGET": "MALT1 (Homo sapiens, UniProt Q9UDY8)", "VALUE_MEASURED": "≤ 400 nM"}

* * *

log10(IC50) for MALT1 (Homo sapiens, UniProt Q9UDY8) - collated from the literature.
ASSAY_READOUT: log10(IC50) (log10 of the value in nM)

{"COMPOUND": "COc1ncc(NC(=O)Nc2cnc(C)c(Cl)c2[C@@H](C)OC)cc1C#N", "log10(IC50)": 3.92}
{"COMPOUND": "CNC(=O)c1ncc(-n2ncc(C(=O)Nc3cnc(-n4nccn4)c(Cl)c3)c2C(F)(F)F)c2ccccc12", "log10(IC50)": 2.01}
{"COMPOUND": "COC(C)c1c(Br)c(C)nc(C)c1NC(=O)Nc1cnc(-n2nccn2)c(Cl)c1 (racemic)", "log10(IC50)": 2.79}
{"COMPOUND": "CC(C)c1c(C(=O)Nc2cnc(-n3nccn3)c(Cl)c2)cnn1-c1cccc2ncccc12", "log10(IC50)": 2.80}
{"COMPOUND": "COc1ccnc(-n2ncc(C(=O)Nc3cnc(-n4nccn4)c(C#N)c3)c2C(F)(F)F)c1Cl", "log10(IC50)": 3.60}
{"COMPOUND": "CCOc1ncc(-n2ncc(C(=O)Nc3cnc(-n4nccn4)c(Cl)c3)c2C(F)(F)F)c2ccccc12", "log10(IC50)": 1.04}

* * *

Assay read-out IC50 on MALT1 (Homo sapiens); records merged from the literature.

{"STRUCTURE_SMILES": "CN(C(=O)C1CCS(=O)(=O)CC1)[C@@H](c1ccc(Nc2cnn(-c3ccccc3C#N)c2C(F)(F)F)cc1)C(F)(F)F", "IC50": "100 to 1000 nM"}
{"STRUCTURE_SMILES": "Cn1nc(C(=O)Nc2ccnc(C(F)(F)F)c2)c2c1-c1ccccc1CC2", "IC50": "500 to 2500 nM"}
{"STRUCTURE_SMILES": "O=C(Nc1cnc(-n2nccn2)c(C(F)(F)F)c1)c1snc(-c2ccccc2)c1C1CC1", "IC50": "≤ 400 nM"}
{"STRUCTURE_SMILES": "Cn1nc(-c2cc(N)ncc2Cl)c(C(F)(F)F)c1C(=O)Nc1ccnc(C(F)(F)F)c1", "IC50": "< 500 nM"}
{"STRUCTURE_SMILES": "N#Cc1cc(NC(=O)c2cnn(-c3nc(Cl)ccc3Cl)c2C(F)(F)F)cnc1-n1nccn1", "IC50": "302 nM"}

* * *

Listed below are molecules with IC50 for UniProt:Q9UDY8, each taken from published literature.
ASSAY_READOUT: IC50

{"STRUCTURE_SMILES": "Cn1nc(-c2cccc3ccoc23)c(C(F)(F)F)c1C(=O)Nc1cnc(-n2nccn2)c(C(F)(F)F)c1", "ASSAYED_TARGET": "UniProt:Q9UDY8", "VALUE_MEASURED": "< 500 nM"}
{"STRUCTURE_SMILES": "CN(C(=O)C1CCS(=O)(=O)CC1)[C@@H](c1ccc(Nc2cnn(CC(C)(C)O)c2C(F)(F)F)cc1)C(F)(F)F", "ASSAYED_TARGET": "UniProt:Q9UDY8", "VALUE_MEASURED": "> 1000 nM"}
{"STRUCTURE_SMILES": "O=C(Nc1ccnc(C(F)(F)F)c1)c1snc(-c2ccc(C(F)F)cc2)c1C1CC1", "ASSAYED_TARGET": "UniProt:Q9UDY8", "VALUE_MEASURED": "≤ 400 nM"}
{"STRUCTURE_SMILES": "Cn1nc(Cc2ccccc2)c(C(F)(F)F)c1C(=O)Nc1cnc(-n2nccn2)c(Cl)c1", "ASSAYED_TARGET": "UniProt:Q9UDY8", "VALUE_MEASURED": "500 to 2500 nM"}
{"STRUCTURE_SMILES": "Cc1c(-c2nsc(C(=O)Nc3ccnc(C(F)(F)F)c3)c2C2CC2)cnn1C", "ASSAYED_TARGET": "UniProt:Q9UDY8", "VALUE_MEASURED": "≤ 400 nM"}
{"STRUCTURE_SMILES": "Cc1cccnc1-c1nsc(C(=O)Nc2cnc(-n3nccn3)c(C#N)c2)c1C1CC1", "ASSAYED_TARGET": "UniProt:Q9UDY8", "VALUE_MEASURED": "≤ 400 nM"}

* * *

Below: compounds with pIC50 recorded for MALT1 (Homo sapiens, UniProt Q9UDY8) in separate published works.
pIC50: −log10 of the molar value.

{"COMPOUND": "Cn1nc(-c2cccc3cnccc23)c(C(F)(F)F)c1C(=O)Nc1cnc(-n2nccn2)c(Cl)c1", "pIC50": "> 6.30"}
{"COMPOUND": "Cc1nc2c(C3CC3)c(NC(=O)Nc3ccc(-n4ccnn4)c(Cl)c3)cnc2s1", "pIC50": "7.30 to 9.00"}
{"COMPOUND": "O=C(Nc1ccnc(C(F)(F)F)c1)c1snc(-c2cccc(C(F)F)c2)c1C1CC1", "pIC50": "≥ 6.40"}
{"COMPOUND": "COC(C)c1c(Nc2ccc([C@H](N(C)C(=O)C3CCS(=O)(=O)CC3)C(F)(F)F)cc2)cnn1-c1cccnc1 (stereo partly shown)", "pIC50": "6.00 to 7.00"}
{"COMPOUND": "CCn1nc(C(=O)Nc2cnc(-n3nccn3)c(Cl)c2)c(C(F)(F)F)c1-c1ccccc1", "pIC50": "> 6.30"}
{"COMPOUND": "Cc1nc2cccc(-c3nn(C)c(C(=O)Nc4cnc(-n5nccn5)c(Cl)c4)c3C(F)(F)F)c2s1", "pIC50": "> 6.30"}
{"COMPOUND": "CO[C@@H](C)c1c(Nc2ccc([C@H](N(C)C(=O)C3CCN(C(C)=O)CC3)C(F)(F)F)cc2)cnn1-c1ccncc1", "pIC50": "6.00 to 7.00"}
